- experimental.target: T1, recombinant human IL-6 (human, UniProt P05231 30-212)
- T1 construct: Flowed in solution over the captured antibodies
- T1 sequence (P05231 30-212 limits assumed): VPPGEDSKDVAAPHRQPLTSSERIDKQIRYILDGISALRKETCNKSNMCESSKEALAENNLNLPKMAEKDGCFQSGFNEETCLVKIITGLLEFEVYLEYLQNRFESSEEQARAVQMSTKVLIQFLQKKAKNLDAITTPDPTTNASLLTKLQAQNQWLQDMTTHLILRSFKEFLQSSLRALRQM
- protocol: SPR (Biacore), supernatant IgG on Protein A, 25 C
value.kind: koff (s⁻¹)

binder | endpoint.value
anti-IL-6 antibody, heavy chain F32G, light chain WT (antibody, IgG1, V domains shown, Full IgG1 tested; V domains derived as in m2) VH: EVQLVESGGGLVQPGGSLRLSCAASGFTFSPGAMSWVRQAPGKGLEWVAKISPGGSWTYYSDTVTGRFTFSLDTSKSTAYLQMNSLRAEDTAVYYCARQLWGYYALDIWGQGTLVTVSS VL: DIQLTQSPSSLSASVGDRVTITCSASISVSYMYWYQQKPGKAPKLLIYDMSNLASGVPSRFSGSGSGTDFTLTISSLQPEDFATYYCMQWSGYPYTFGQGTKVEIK | 0.000133
anti-IL-6 antibody, heavy chain S56H, light chain WT (antibody, IgG1, V domains shown, Full IgG1 tested; V domains derived as in m2) VH: EVQLVESGGGLVQPGGSLRLSCAASGFTFSPFAMSWVRQAPGKGLEWVAKISPGGHWTYYSDTVTGRFTFSLDTSKSTAYLQMNSLRAEDTAVYYCARQLWGYYALDIWGQGTLVTVSS VL: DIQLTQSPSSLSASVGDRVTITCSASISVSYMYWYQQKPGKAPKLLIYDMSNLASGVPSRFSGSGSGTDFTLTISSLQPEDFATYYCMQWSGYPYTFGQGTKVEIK | 0.000161
anti-IL-6 antibody, heavy chain G66E, light chain WT (antibody, IgG1, V domains shown, Full IgG1 tested; V domains derived as in m2) VH: EVQLVESGGGLVQPGGSLRLSCAASGFTFSPFAMSWVRQAPGKGLEWVAKISPGGSWTYYSDTVTERFTFSLDTSKSTAYLQMNSLRAEDTAVYYCARQLWGYYALDIWGQGTLVTVSS VL: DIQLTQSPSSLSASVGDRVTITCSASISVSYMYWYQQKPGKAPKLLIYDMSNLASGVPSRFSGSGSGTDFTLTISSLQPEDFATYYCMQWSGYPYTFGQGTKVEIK | 0.00011
